Biological target: Vascular endothelial growth factor receptor 2 (Homo sapiens)
Sequence (P35968 whole entry): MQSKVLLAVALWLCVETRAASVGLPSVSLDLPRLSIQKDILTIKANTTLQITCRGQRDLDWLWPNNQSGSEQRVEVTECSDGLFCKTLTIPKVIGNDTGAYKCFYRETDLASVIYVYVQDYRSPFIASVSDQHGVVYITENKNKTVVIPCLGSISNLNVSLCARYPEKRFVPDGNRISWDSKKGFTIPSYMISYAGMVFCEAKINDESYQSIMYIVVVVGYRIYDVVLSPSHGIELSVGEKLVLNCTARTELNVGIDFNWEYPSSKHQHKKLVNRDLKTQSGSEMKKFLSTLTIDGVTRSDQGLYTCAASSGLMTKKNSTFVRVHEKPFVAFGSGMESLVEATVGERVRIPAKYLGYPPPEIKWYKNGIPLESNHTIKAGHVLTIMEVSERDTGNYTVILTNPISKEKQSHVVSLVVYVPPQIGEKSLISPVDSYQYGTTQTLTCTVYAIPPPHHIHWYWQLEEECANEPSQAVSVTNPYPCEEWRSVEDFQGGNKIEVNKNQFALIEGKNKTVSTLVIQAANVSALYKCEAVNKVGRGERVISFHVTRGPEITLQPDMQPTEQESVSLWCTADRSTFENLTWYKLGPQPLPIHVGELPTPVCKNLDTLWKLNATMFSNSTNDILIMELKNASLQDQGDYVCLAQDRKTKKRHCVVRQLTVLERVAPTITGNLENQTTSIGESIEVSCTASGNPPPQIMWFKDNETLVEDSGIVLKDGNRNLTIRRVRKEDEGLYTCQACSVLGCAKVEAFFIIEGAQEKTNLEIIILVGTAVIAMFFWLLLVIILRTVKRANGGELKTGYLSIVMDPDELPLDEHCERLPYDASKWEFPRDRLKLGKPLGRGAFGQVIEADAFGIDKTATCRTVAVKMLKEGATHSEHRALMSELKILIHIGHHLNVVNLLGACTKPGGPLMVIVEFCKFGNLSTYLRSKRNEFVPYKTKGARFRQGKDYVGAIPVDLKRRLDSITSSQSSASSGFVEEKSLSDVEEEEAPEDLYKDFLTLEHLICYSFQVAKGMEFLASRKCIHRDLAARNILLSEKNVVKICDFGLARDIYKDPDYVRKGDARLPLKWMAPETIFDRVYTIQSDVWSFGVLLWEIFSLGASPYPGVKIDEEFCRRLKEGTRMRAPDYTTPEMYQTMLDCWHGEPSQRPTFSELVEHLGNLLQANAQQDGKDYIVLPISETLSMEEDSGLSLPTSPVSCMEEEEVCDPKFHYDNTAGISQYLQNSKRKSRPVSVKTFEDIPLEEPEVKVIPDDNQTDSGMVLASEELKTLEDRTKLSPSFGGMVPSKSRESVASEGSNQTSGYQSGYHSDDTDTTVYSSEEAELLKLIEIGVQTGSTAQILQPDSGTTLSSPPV
pIC50: −log10 of the molar value.
measure: pIC50

| compound | measured_target | reported |
| --- | --- | --- |
| CC(C(=O)Nc1ccc(S(N)(=O)=O)cc1)N1CCCC(C(=O)N/N=C2\C(=O)Nc3ccccc32)C1 (stereo unspecified) | Vascular endothelial growth factor receptor 2 (Homo sapiens) | 6.69 |
